- Tested on: Escherichia coli TOP10;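 further: peptides expressed intracellularly from a pBAD plasmid library in pooled LB shake-flask culture, induced with 0.3% L-arabinose, DNA abundance read by NGS, three biological replicates, DESeq2 with apeglm shrinkage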
- Assay explanation: shrunken log2 fold change of peptide-encoding DNA abundance (4.5 h post-induction vs induction); higher = less antimicrobial activity (less host growth inhibition)
- Experimental conditions: time post-induction: 4.5 h; library: site-saturation at positions 5, 18, 19, 20
Reported shrunken log2 fold change values for a set of sequences
Respond using a number only.

Memo: RRIRGRPPRLPRPRPRPSNGPRP , reported shrunken log2 fold change: 2.8

Notebook: RRIRWRPPRLPRPRPRPVTSPRP , shrunken log2 fold change read as 0.112

shrunken log2 fold change reading for RRIRFRPPRLPRPRPRPILGPRP : 0.0151

Please fill in: shrunken log2 fold change reported for RRIRVRPPRLPRPRPRPLTLPRP = -0.416

Notebook: RRIRLRPPRLPRPRPRPHSGPRP , shrunken log2 fold change read as -0.0238

// shrunken log2 fold change value for RRIRTRPPRLPRPRPRPNNIPRP : -0.695

Lookup result for RRIRWRPPRLPRPRPRPVAAPRP ; measured shrunken log2 fold change: 0.855

Field shrunken log2 fold change (entry RRIRHRPPRLPRPRPRPKNQPRP ) reads -0.16
